# log10(IC50) annotations
- tested-system: hNav1.5 (Homo sapiens (Human))
- Sequence (Q14524 whole entry): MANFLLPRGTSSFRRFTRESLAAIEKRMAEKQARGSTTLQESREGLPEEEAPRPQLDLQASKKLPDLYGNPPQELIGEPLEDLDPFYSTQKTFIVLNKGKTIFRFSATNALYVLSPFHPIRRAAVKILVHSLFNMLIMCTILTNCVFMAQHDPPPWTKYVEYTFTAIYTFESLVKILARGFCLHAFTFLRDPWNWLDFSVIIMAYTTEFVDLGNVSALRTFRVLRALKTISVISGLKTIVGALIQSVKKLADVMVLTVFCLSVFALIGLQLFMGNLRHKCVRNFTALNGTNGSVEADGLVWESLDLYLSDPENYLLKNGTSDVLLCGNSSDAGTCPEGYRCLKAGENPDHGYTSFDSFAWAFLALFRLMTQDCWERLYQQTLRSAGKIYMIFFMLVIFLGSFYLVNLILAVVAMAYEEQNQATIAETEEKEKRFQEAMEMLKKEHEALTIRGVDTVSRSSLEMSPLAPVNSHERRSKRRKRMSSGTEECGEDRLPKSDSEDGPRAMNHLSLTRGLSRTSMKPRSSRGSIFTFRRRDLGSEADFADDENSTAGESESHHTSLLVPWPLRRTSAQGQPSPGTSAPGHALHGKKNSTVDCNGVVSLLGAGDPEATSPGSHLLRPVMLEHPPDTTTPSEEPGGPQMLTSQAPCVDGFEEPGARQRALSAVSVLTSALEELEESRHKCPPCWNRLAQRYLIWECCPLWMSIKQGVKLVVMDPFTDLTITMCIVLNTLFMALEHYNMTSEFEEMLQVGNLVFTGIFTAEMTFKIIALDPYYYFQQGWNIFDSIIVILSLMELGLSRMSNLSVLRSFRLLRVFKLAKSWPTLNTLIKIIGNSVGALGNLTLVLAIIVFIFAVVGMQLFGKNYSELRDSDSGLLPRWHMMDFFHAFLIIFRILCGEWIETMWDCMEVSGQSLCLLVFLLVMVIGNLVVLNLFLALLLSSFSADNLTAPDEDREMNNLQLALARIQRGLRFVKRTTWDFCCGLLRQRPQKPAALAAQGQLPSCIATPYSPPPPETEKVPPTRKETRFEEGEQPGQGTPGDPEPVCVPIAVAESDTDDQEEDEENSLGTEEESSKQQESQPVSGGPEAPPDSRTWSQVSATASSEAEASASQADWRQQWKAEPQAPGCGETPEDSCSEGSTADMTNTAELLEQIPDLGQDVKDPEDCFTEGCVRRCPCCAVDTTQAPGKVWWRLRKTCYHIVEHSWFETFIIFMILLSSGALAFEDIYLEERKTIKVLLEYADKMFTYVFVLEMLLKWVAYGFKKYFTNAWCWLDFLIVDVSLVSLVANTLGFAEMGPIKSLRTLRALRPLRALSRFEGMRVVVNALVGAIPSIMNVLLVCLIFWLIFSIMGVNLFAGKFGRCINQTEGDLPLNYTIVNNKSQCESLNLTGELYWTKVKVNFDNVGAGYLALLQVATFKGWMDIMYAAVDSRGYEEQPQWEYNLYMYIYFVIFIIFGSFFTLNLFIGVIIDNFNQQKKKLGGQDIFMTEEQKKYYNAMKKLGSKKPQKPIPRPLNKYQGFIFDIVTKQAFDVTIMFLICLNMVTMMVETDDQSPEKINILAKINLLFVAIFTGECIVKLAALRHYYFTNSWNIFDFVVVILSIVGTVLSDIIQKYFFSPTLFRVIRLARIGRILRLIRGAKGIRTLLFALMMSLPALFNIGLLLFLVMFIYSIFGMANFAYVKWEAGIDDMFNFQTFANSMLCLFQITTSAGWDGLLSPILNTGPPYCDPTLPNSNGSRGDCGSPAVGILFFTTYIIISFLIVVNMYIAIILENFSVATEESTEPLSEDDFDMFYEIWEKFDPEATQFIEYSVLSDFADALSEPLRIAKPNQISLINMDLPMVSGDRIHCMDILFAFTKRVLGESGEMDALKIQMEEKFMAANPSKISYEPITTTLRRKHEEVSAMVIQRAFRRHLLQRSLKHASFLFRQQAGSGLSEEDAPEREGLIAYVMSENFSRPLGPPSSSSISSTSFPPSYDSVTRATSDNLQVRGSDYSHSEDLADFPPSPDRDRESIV
Structures can show the parent of a compound that is named as a salt.
Please note: log10 values; quantity IC50; unit µM.

// worked examples, log10(IC50) included
N#Cc1cccnc1C[C@H](N)c1ccccc1-c1noc2ccccc12 | 0.82
CN(C)C(=O)c1cccc(C[C@H](N)c2ccccc2-c2noc3ccccc23)n1 [Example 89, hydrochloride] | 0.76
NC(=O)c1ccc(F)c(C[C@H](N)c2ccccc2-c2noc3ccccc23)n1 [Example 72, formate] | 1.27
N[C@@H](Cc1ccccn1)c1c(F)cccc1-c1noc2ccccc12 [Example 111, hydrochloride] | 1.45
Cn1cc(-c2cccc(C[C@H](N)c3ccccc3-c3noc4ccccc34)n2)cn1 [Example 90, hydrochloride] | 1.03

Which measured log10(IC50) belongs to N[C@@H](Cc1ccccn1)c1ccccc1-c1noc2ccccc12 [Example 42, hydrochloride] , tested on hNav1.5 (Homo sapiens (Human))?
0.84

Which measured log10(IC50) belongs to Cn1nc(-c2ccccc2[C@@H](N)Cc2ccccn2)c2ccccc21 [Example 60, hydrochloride] , tested on hNav1.5 (Homo sapiens (Human))?
0.96

Which measured log10(IC50) belongs to CCc1cccc(C[C@H](N)c2ccccc2-c2noc3ccccc23)n1 [Example 101, hydrochloride] , tested on hNav1.5 (Homo sapiens (Human))?
0.20

Which measured log10(IC50) belongs to CC(C)C(c1ccccn1)[C@H](N)c1ccccc1-c1noc2ccccc12 (stereo partly shown) [Example 48, hydrochloride] , tested on hNav1.5 (Homo sapiens (Human))?
0.72

Which measured log10(IC50) belongs to N[C@@H](Cc1nc(-c2cn[nH]c2)ccc1F)c1ccccc1-c1noc2ccccc12 [Example 78, hydrochloride] , tested on hNav1.5 (Homo sapiens (Human))?
0.81

Which measured log10(IC50) belongs to CNc1cccc(C[C@H](N)c2ccccc2-c2noc3cc(C#N)ccc23)n1 [Example 97, dihydrochloride] , tested on hNav1.5 (Homo sapiens (Human))?
0.92

Origin of values: patent US20240190854A1
